Molecular target: T1, mfNPR1-mFc (monkey)
T1 construct: also called dimeric monkey NPR1
T1 chain: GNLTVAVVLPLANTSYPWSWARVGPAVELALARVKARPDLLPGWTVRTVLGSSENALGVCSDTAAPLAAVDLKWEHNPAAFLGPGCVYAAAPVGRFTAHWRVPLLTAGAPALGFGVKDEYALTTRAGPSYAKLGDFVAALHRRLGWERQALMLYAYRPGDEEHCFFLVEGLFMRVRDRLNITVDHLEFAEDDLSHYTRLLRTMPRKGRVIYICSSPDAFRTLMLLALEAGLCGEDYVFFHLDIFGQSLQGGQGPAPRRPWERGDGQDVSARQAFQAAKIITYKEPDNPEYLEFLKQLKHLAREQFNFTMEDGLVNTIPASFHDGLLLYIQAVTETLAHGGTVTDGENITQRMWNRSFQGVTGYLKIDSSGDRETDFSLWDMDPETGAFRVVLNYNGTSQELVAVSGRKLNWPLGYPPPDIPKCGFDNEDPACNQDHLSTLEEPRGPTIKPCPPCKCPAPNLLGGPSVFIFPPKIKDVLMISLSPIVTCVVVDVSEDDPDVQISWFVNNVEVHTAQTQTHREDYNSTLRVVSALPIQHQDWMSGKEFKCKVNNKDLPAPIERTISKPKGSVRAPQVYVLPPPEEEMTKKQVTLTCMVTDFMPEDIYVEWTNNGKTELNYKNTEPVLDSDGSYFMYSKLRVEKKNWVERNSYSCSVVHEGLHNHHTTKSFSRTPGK
Test: SPR, mAb captured, 25C
Kindly supply the reported 100 nM Ag Bound (RU) values for the records listed here.
Give bare numbers, in RU.

mAb25502 (antibody, human IgG4, V domains shown) VH: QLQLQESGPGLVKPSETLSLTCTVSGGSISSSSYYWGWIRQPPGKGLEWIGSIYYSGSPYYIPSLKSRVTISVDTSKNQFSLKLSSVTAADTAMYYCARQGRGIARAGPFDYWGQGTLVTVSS VL: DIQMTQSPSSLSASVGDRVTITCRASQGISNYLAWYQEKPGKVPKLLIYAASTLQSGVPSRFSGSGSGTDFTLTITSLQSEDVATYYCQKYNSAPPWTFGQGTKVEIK	22
mAb22033 (antibody, human IgG4, V domains shown) VH: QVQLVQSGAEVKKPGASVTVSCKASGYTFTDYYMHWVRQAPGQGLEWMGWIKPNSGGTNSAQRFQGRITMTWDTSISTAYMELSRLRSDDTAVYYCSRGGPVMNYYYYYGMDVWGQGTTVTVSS VL: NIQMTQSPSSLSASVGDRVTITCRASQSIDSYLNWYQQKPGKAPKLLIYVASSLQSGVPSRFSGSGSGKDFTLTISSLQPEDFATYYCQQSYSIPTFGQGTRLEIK	96

For reference, reported 100 nM Ag Bound (RU) for mAb25479 (antibody, human IgG4, V domains shown) VH: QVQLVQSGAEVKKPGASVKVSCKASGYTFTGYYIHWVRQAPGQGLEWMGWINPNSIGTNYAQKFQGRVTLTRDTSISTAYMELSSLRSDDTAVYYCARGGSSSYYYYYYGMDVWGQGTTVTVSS VL: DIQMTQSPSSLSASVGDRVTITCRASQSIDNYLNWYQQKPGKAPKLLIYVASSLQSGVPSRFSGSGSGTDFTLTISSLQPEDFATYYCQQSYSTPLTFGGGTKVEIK stands at 54
